Reference for the values: the RNAGym collection of RNA variant scans (doi:10.1101/gr.219683.116)

B1: mRNA-splicing (parent)
chain: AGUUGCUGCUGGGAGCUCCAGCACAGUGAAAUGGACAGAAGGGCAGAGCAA

variants of: B1; assay: exon inclusion enrichment index; higher = more inclusion; WT1 exon 5 minigene, HEK293
Label rule, in plain words: exon inclusion enrichment index of 0.4 and up is met, under 0.4 is not met.

State whether the measured exon inclusion enrichment index reaches 0.4, counting equality as reaching it, for G5A U7A G8U C9A
not met

// repeat for G5C C6G U7C U10C C36G A37C and report
met

Now consider C16G U17C and answer again.
not met

Another variant: G5U G8U C9U A39U
not met

Would you mind doing G5A C6G U7G C9A U32C G33C as well?
not met

Queued: A37G
met

What do we get for G5A C6U U7A G8U C9A C24U A25G ?
not met

Item: G5C C6A U7C G8A U10A A37G G38A
not met

Lookup C6A U7A C9A U10G G11C
met

Please do the same for C6A U7G G8C C9A U10C as well.
met

Next variant up: G5C C6A U7C G8A U10A G41U G42A
not met

One more variant: G5A U7C G8A U10C A31C
met

Now consider G5A C6G U7G C9A G34A A35G and answer again.
not met

For G5A C6G G8A U10C then?
not met

Next entry: C6A U7C C9A U10C C22U A23C
met

What would you report for G5A C6U U7A G8U C9A G38U A39U ?
not met

Repeat with G5U G8U U10G
met

Also check G5U C6U U7A G8U C9A
not met

Thanks! And G5U G8U C9U C44U ?
not met

Another: C6A U7A C9A U10A G11C G12U
met

Follow-up entry: C6A U7A C9A U10A G42U G43C
met

What would you report for C6A U7A C9A U10A C24U A25U ?
met
